This section presents compounds with their documented IC50 values.
target: S. schleiferi DXR enzyme (Staphylococcus schleiferi); test: S. schleiferi DXR enzyme activity and inhibition (NADPH oxidation at 340 nm); type: biochemical
Sequence (A0ABF7SXB4 entry or part of it): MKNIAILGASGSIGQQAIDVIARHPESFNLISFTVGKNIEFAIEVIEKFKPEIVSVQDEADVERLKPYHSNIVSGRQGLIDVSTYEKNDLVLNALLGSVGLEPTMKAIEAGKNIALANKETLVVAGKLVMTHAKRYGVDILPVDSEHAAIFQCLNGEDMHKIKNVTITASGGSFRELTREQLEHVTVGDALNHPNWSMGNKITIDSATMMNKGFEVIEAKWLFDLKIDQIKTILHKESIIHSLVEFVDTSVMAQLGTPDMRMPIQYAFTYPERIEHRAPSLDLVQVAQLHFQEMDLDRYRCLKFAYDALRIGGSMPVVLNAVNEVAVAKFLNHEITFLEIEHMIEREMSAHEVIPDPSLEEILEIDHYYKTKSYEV
Hi! Could you send only the number? It should be in µM, unit omitted.

Solved entries:
(Q) Quick one: IC50 for CC(=O)N(O)C/C=C/P(=O)(O)O ?
(A) 3.31

(Q) Quick one: IC50 for O=CN(O)C/C=C/P(=O)(O)O ?
(A) 0.41

Continuing:
(Q) Quick one: IC50 for CC(=O)N(O)CCCP(=O)(O)O ?
(A) 1

* * *

biological target: S. schleiferi DXR enzyme (Staphylococcus schleiferi)
QUANTITY_KIND: Ki
Include the unit right after the number.

(Q) Can you look up Ki on S. schleiferi DXR enzyme (Staphylococcus schleiferi) for O=CN(O)CCCP(=O)(O)O ?
(A) 290 nM
